Taken from ChEMBL document CHEMBL5131391.

test system: U-251; assay: Antiproliferative activity against human U-251 cells assessed as growth inhibition at 10 uM measured after 48 hrs by NCI protocol based SRB assay relative to control; format: functional; conditions: read-out: GI
Measurement kind: inhibition of growth at 10 µM (%)
Field: numeric (%). Do not append units.

In [3]: df
Out[3]:
                                item_smiles  result_unit  value
0  COc1cc(-c2c(C#N)c(-c3ccco3)nc3c2c(-c2ccccc2)nn3-c2ccccc2)ccc1O            %     15
1  N#Cc1c(-c2ccc(Cl)cc2)nc2c(c(-c3ccccc3)nn2-c2ccccc2)c1-c1ccc(O)cc1            %     67
2  Cc1ccc(-c2nc3c(c(-c4ccccc4)nn3-c3ccccc3)c(-c3ccc(O)cc3)c2C#N)cc1            %     59

The reported value for `N#Cc1c(-c2ccco2)nc2c(c(-c3ccccc3)nn2-c2ccccc2)c1-c1ccc(O)cc1` in terms of inhibition of growth at 10 µM is 39

The reported value for `N#Cc1c(-c2ccccc2)nc2c(c(-c3ccccc3)nn2-c2ccccc2)c1-c1ccc(O)cc1` in terms of inhibition of growth at 10 µM is 76

The reported value for `COc1cc(-c2c(C#N)c(-c3ccccc3)nc3c2c(-c2ccccc2)nn3-c2ccccc2)ccc1O` in terms of inhibition of growth at 10 µM is 31

* * *

Listing of entries alongside the reported inhibition of growth at 10 µM.
tested on: NCI-H460; assay: Antiproliferative activity against human NCI-H460 cells assessed as growth inhibition at 10 uM measured after 48 hrs by NCI protocol based SRB assay relative to control; format: functional; conditions: read-out: GI
Field: numeric (%). Do not append units.

>>> df
                                item_smiles  value
0  COc1cc(-c2c(C#N)c(-c3ccccc3)nc3c2c(-c2ccccc2)nn3-c2ccccc2)ccc1O     38
1  N#Cc1c(-c2ccco2)nc2c(c(-c3ccccc3)nn2-c2ccccc2)c1-c1ccc(O)cc1     51
2  N#Cc1c(-c2ccc(Cl)cc2)nc2c(c(-c3ccccc3)nn2-c2ccccc2)c1-c1ccc(O)cc1     75
3  COc1cc(-c2c(C#N)c(-c3ccco3)nc3c2c(-c2ccccc2)nn3-c2ccccc2)ccc1O     28
4  N#Cc1c(-c2ccccc2)nc2c(c(-c3ccccc3)nn2-c2ccccc2)c1-c1ccc(O)cc1     91

Please find the next molecule below.
The reported value for `Cc1ccc(-c2nc3c(c(-c4ccccc4)nn3-c3ccccc3)c(-c3ccc(O)cc3)c2C#N)cc1` in terms of inhibition of growth at 10 µM is 73

* * *

system: MDA-MB-468; assay: Antiproliferative activity against human MDA-MB-468 cells assessed as growth inhibition at 10 uM measured after 48 hrs by NCI protocol based SRB assay relative to control; type: functional; settings: read-out: GI
Assign t to entries whose inhibition of growth at 10 µM meets or exceeds 50%; assign f to the rest.

                                item_smiles  label_value
0  COc1cc(-c2c(C#N)c(-c3ccco3)nc3c2c(-c2ccccc2)nn3-c2ccccc2)ccc1O            f
1  N#Cc1c(-c2ccccc2)nc2c(c(-c3ccccc3)nn2-c2ccccc2)c1-c1ccc(O)cc1            t

Is inhibition of growth at 10 µM for `COc1cc(-c2c(C#N)c(-c3ccccc3)nc3c2c(-c2ccccc2)nn3-c2ccccc2)ccc1O` at or above 50%?
f

Is inhibition of growth at 10 µM for `Cc1ccc(-c2nc3c(c(-c4ccccc4)nn3-c3ccccc3)c(-c3ccc(O)cc3)c2C#N)cc1` at or above 50%?
f

Is inhibition of growth at 10 µM for `N#Cc1c(-c2ccc(Cl)cc2)nc2c(c(-c3ccccc3)nn2-c2ccccc2)c1-c1ccc(O)cc1` at or above 50%?
t
